assay: Pharmacokinetic determination in mice (plasma); assay type: in vivo, C57BL/6J mice; settings: male, C57BL/6J, mouse, 5 mg/kg, C57 mice, PO administration, 5 mpk, read-out: Plasma concentration Cmax
Below, each of the molecules is paired with its reported Cmax value.

# molecule, Cmax
measured = [
    ("O=C1c2ncccc2CN1c1ccc(N[C@H]2CC[C@H](Nc3nc4cc(F)ccn4n3)C2)nc1 [Example 129]", "4880 ng/mL"),
    ("O=C1c2cccc(C(F)(F)F)c2CN1c1ccc(N[C@H]2CC[C@H](Nc3ncc(C(F)(F)F)nn3)C2)nc1 [Example 158]", "2320 ng/mL"),
    ("O=C1c2cccnc2CN1c1ccc(N[C@H]2CC[C@H](Nc3ncc(C(F)(F)F)cn3)C2)nc1 [Example 133]", "7530 ng/mL"),
    ("O=C1c2cc(C(F)(F)F)ncc2CN1c1ccc(N[C@H]2CC[C@H](Nc3nc4cc(F)ccn4n3)C2)nc1 [Example 151]", "7420 ng/mL"),
    ("O=C1c2nc(C(F)(F)F)ccc2CN1c1ccc(N[C@H]2CC[C@H](Nc3nc4cc(F)ccn4n3)C2)nc1 [Example 155]", "10000 ng/mL"),
    ("Cc1cc2c(cn1)CN(c1ccc(N[C@H]3CC[C@H](Nc4ncc(C(F)(F)F)nn4)C3)nc1)C2=O [Example 148]", "13500 ng/mL"),
    ("O=C1c2ncccc2CN1c1ccc(N[C@H]2CC[C@H](Nc3nc4cc(C(F)(F)F)ccn4n3)C2)nc1 [Example 143]", "3870 ng/mL"),
    ("O=C1c2cc(C(F)(F)F)ncc2CN1c1ccc(N[C@H]2CC[C@H](Nc3ncc(C(F)(F)F)nn3)C2)nc1 [Example 152]", "5290 ng/mL"),
    ("O=C1c2c(cccc2C(F)(F)F)CN1c1ccc(N[C@H]2CC[C@H](Nc3ncc(C(F)(F)F)nn3)C2)nc1 [Example 157]", "2190 ng/mL"),
    ("O=C1c2ncccc2CN1c1ccc(N[C@H]2CC[C@H](Nc3ncc(C(F)(F)F)nn3)C2)nc1 [Example 144]", "2820 ng/mL"),
    ("Cc1cc2c(cn1)CN(c1ccc(N[C@H]3CC[C@H](Nc4nc5cc(F)ccn5n4)C3)nc1)C2=O [Example 147]", "8230 ng/mL"),
    ("O=C1c2cccnc2CN1c1ccc(N[C@H]2CC[C@H](Nc3ncc(C(F)(F)F)nn3)C2)nc1 [Example 145]", "2370 ng/mL"),
    ("O=C1c2ncccc2CN1c1ccc(N[C@H]2CC[C@H](Nc3ncc(OC(F)F)cn3)C2)nc1 [Example 57]", "9960 ng/mL"),
    ("Cc1cc2c(cn1)CN(c1ccc(N[C@H]3CC[C@H](Nc4ncc(OC(F)F)cn4)C3)nc1)C2=O [Example 116]", "4060 ng/mL"),
    ("Cc1nccc2c1CN(c1ccc(N[C@H]3CC[C@H](Nc4nc5cc(F)ccn5n4)C3)nc1)C2=O [Example 149]", "12300 ng/mL"),
]
